Biological target: Ephrin type-B receptor 2 (Homo sapiens)
Sequence (whole entry): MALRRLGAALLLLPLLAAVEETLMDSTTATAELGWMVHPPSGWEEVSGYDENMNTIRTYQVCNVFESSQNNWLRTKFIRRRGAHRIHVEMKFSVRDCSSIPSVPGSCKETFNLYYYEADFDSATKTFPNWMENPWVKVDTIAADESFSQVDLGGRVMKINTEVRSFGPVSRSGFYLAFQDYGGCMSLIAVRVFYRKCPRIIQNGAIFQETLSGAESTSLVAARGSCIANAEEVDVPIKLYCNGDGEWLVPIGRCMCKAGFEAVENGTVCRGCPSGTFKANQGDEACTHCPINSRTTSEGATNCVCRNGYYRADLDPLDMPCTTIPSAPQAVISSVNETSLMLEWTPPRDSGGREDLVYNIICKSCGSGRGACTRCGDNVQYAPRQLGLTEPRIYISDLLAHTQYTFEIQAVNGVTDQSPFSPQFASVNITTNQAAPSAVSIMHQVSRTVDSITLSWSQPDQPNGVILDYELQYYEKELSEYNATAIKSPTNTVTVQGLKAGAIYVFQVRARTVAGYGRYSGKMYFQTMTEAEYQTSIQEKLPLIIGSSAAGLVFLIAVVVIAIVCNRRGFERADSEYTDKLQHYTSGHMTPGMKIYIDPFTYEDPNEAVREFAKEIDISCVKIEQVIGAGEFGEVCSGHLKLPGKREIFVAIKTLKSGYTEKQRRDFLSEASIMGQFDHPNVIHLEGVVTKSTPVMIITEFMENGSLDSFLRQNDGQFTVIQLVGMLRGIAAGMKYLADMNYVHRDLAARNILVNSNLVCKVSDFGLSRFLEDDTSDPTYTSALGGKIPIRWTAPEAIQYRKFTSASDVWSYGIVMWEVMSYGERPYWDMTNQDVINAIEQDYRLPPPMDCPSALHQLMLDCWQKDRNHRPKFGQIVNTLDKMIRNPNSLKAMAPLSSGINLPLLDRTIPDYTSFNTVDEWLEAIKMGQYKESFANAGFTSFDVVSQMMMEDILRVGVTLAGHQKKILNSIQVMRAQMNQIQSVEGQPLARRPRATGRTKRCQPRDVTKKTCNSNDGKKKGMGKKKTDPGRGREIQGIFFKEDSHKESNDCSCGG
Conditions: at 1 µM
Description: GSK_PKIS: EPHB2 mean inhibition at 1 uM [Nanosyn]
Returns 1 if the recorded inhibition is greater than or equal to 7%, and 0 otherwise.

Observe how each entry below is paired with its result.
Cc1nnc(-c2ccc(C)c(-c3ccc(C(=O)NCc4ccc(Cl)cc4)cc3)c2)o1 ... 0
NC(=O)Cc1ccccc1Oc1nccc(-c2c(-c3ccc(F)cc3)ncn2C2CCNCC2)n1 ... 0
NC(=O)c1cc(-c2ccc(F)cc2)cc(-c2ccncc2)c1N ... 1

Continue with the molecule presented below.
Is inhibition at least 7%? Consider CCS(=O)(=O)c1ccc(OC)c(Nc2ncc(-c3ccccc3Cl)o2)c1
1
